Entries annotated with measured log10 of IC50
biological target: pERK1/2 (Thr202/Tyr204), NCI-1H358 (KRAS G12C) (Homo sapiens, UniProt P01116, G12C); construct: pERK1/2 HTRF read-out; assay: Assay of intracellular pERK1/2 (Thr202/Tyr204) phosphorylation in NCI-H358 cells (KRAS G12C); format: cell-based; details: pERK1/2, 2 days, read-out: NCI-H358 (KRAS G12C) IC50
Sequence (P01116 1-188 isoform P01116-2 G12C): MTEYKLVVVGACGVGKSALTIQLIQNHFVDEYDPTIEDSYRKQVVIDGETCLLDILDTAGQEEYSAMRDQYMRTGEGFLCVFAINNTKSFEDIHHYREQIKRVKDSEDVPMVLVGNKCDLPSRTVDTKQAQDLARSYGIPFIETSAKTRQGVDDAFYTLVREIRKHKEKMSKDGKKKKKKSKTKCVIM
valueType: log10 of IC50 (log10 of the value in nM)

- molecule: "[2H]C([2H])(Oc1nc2c3c(nc(-c4cc(O)cc(Cl)c4C4CC4)c(F)c3n1)OCCN2[C@@H](C)c1cccnc1N)[C@@H]1C[C@@H](F)CN1C([2H])([2H])[2H] (single isomer, unassigned)"
  log10 of IC50: -0.30
- molecule: "C#Cc1c(F)ccc2cc(O)cc(-c3nc4c5c(nc(OC[C@@]67CCCN6C[C@H](F)C7)nc5c3F)N(C(C)c3cccnc3N)[C@@H](C)CO4)c12 (single isomer, unassigned) [Compound 273]"
  log10 of IC50: -0.30
- molecule: "Cc1c(F)c(N)cc(-c2nc3c4c(nc(OC[C@@H]5CCCN5C)nc4c2F)N(C(C)c2cccnc2N)CCO3)c1C(F)(F)F (single isomer, unassigned) [Compound 85]"
  log10 of IC50: -0.40
- molecule: "[2H]C1([2H])CN(C(C)c2cccnc2N)c2nc(OC[C@@]34CCCN3C[C@H](F)C4)nc3c(F)c(-c4cc(N)c(F)c(C)c4C(F)(F)F)nc(c23)O1 (single isomer, unassigned) [Compound 184]"
  log10 of IC50: 0.70
- molecule: "Cc1n[nH]c2cc3ccccc3c(-c3nc4c5c(nc(OC[C@@]67CCCN6C[C@H](F)C7)nc5c3F)N(C(C)c3cccnc3N)[C@@H](C)CO4)c12 (stereo partly shown)"
  log10 of IC50: -0.52
- molecule: "[2H]C1([2H])Oc2nc(-c3cc(N)c(F)c(C)c3C(F)(F)F)c(F)c3nc(OC[C@@H]4C[C@@H](F)CN4C)nc(c23)N(C(C)c2cccnc2N)C1([2H])[2H] (single isomer, unassigned) [Compound 203]"
  log10 of IC50: 1.94
- molecule: "[2H]C([2H])(Oc1nc2c3c(nc(-c4cc(N)c(F)cc4C(F)(F)F)c(F)c3n1)OCCN2C(C)c1cccnc1N)[C@@H]1C[C@@H](F)CN1C([2H])([2H])[2H] (stereo partly shown)"
  log10 of IC50: 1.23
- molecule: "CC(c1cccnc1N)N1CCOc2nc(-c3cc(O)cc4ccc(F)c(F)c34)c(F)c3ncnc1c23 (stereo not shown) [Compound 22]"
  log10 of IC50: 1.58
- molecule: "Cc1ccc2[nH]nc(C)c2c1-c1nc2c3c(nc(OC[C@@]45CCCN4C[C@H](F)C5)nc3c1F)N(C(C)c1cccnc1N)[C@@H](C)CO2 (stereo partly shown)"
  log10 of IC50: -0.05

* * *

molecular target: pERK1/2 (Thr202/Tyr204), NCI-1H441 (KRAS G12V) (Homo sapiens, UniProt P01116, G12V); construct: pERK1/2 HTRF read-out; test: Assay of intracellular pERK1/2 (Thr202/Tyr204) phosphorylation in NCI-H441 cells (KRAS G12V); type: cell-based; settings: pERK1/2, 2 days, read-out: NCI-H441 (KRAS G12V) IC50
Sequence (P01116 1-188 isoform P01116-2 G12V): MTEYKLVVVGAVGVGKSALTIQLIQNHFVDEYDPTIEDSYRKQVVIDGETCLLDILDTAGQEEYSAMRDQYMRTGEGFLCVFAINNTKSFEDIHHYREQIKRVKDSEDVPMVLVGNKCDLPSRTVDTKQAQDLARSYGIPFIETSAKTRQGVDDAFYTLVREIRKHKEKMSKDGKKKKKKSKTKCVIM
Threshold check on IC50: strictly below 30 nM is Met; on or above 30 nM is Not met.

- molecule: "[2H]C1([2H])Oc2nc(-c3cc(N)c(F)c(Cl)c3C(F)(F)F)c(F)c3nc(OC[C@@]45CCCN4C[C@H](F)C5)nc(c23)N(C(C)c2cccnc2N)C1([2H])[2H] (single isomer, unassigned) [Compound 207]"
  cat: "Not met"
- molecule: "Cc1c(-c2nc3c4c(nc(OC[C@@]56CCCN5C[C@H](F)C6)nc4c2F)N(C(C)c2cccnc2N)[C@@H](C)CO3)ccc2cn[nH]c12 (some centres unmarked) [Compound 324]"
  cat: "Not met"
- molecule: "C#Cc1c(F)ccc2cc(O)cc(-c3nc4c5c(nc(OC[C@@]67CCCN6C[C@H](F)C7)nc5c3F)N(C3CC3)CCO4)c12 [Compound 197]"
  cat: "Not met"
- molecule: "Cc1cc(N)cc(-c2nc3c4c(nc(OC[C@@H]5CCCN5CCO)nc4c2F)N(C(C)c2cccnc2N)CCO3)c1C(F)(F)F (some centres unmarked) [Compound 108]"
  cat: "Met"
- molecule: "CC(c1cccnc1N)N1CCOc2nc(-c3ccc(F)c4sc(N)nc34)c(F)c3nc(OC[C@@H]4CCN4CC(F)F)nc1c23 (some centres unmarked) [Compound 19]"
  cat: "Not met"
- molecule: "Cc1c(C(F)(F)F)c(-c2nc3c4c(nc(OC[C@@]56CCCN5C[C@H](F)C6)nc4c2F)N(C(C)c2cccnc2N)[C@@H](C)CO3)c2c(Cl)n[nH]c2c1F (some centres unmarked) [Compound 381]"
  cat: "Met"
- molecule: "CC(c1cccnc1N)N1c2nc(OC[C@@]34CCCN3C[C@H](F)C4)nc3cc(-c4c5ccccc5cc5[nH]nc(C6CC6)c45)nc(c23)OC[C@@H]1C (some centres unmarked) [Compound 403]"
  cat: "Not met"
- molecule: "Cc1c(F)c(N)cc(-c2nc3c4c(nc(OC[C@@]56CCCN5C[C@H](F)C6)nc4c2F)N(C(C)c2cccnc2N)[C@@H](C)CO3)c1C(F)(F)F (single isomer, unassigned) [Compound 263]"
  cat: "Not met"
- molecule: "[2H]C1([2H])Oc2nc(-c3cc(N)c(F)c(C)c3C(F)(F)F)c(F)c3nc(OC[C@@]45CCCN4C[C@H](F)C5)nc(c23)N(C(C)c2cccnc2N)C1([2H])[2H] (single isomer, unassigned) [Compound 200]"
  cat: "Met"
- molecule: "Cc1cc2cn[nH]c2cc1-c1nc2c3c(nc(OC[C@@]45CCCN4C[C@H](F)C5)nc3c1F)N(C(C)c1cccnc1N)[C@@H](C)CO2 (some centres unmarked) [Compound 314]"
  cat: "Not met"
- molecule: "CC(c1cccnc1N)N1c2nc(OC[C@@]34CCCN3C[C@H](F)C4)nc3c(F)c(-c4c(C(F)(F)F)c(Cl)cc5[nH]ncc45)nc(c23)OC[C@@H]1C (single isomer, unassigned) [Compound 330]"
  cat: "Met"

* * *

Target: pERK1/2 (Thr202/Tyr204), NCI-1H358 (KRAS G12C) (Homo sapiens, UniProt P01116, G12C)
Construct: pERK1/2 HTRF read-out
Assay: Assay of intracellular pERK1/2 (Thr202/Tyr204) phosphorylation in NCI-H358 cells (KRAS G12C)
Format: cell-based
Details: pERK1/2, 2 days, read-out: NCI-H358 (KRAS G12C) IC50
Source text: Example 2: Assay of intracellular pERK1/2 (Thr202/Tyr204)phosphorylation 1. […] Fluorescence ratio=fluorescence value665 nm/fluorescence value615 nm Inhibition rate (%)=100−((fluorescence ratio of compound well−fluorescence ratio of negative control well)/(fluorescence ratio of positive control well−fluorescence ratio of negative control well))×100 […]
pIC50: −log10 of the molar value.
# binarize pIC50: threshold 8 inclusive, high side Condition met, low side Condition not met

- molecule: "Cc1cc(N)cc(-c2nc3c4c(nc(OC[C@@H]5CCCN5)nc4c2F)N(C(C)c2cccnc2N)CCO3)c1C(F)(F)F (single isomer, unassigned) [Compound 106]"
  targetOrTestSystem: "pERK1/2 (Thr202/Tyr204), NCI-1H358 (KRAS G12C) (Homo sapiens, UniProt P01116, G12C)"
  cat: "Condition not met"
- molecule: "C#Cc1c(Cl)cc(N)cc1-c1nc2c3c(nc(OC[C@@H]4CCCN4C)nc3c1F)N(C(C)c1cccnc1N)CCO2 (some centres unmarked) [Compound 94]"
  targetOrTestSystem: "pERK1/2 (Thr202/Tyr204), NCI-1H358 (KRAS G12C) (Homo sapiens, UniProt P01116, G12C)"
  cat: "Condition not met"
- molecule: "Cc1cc2[nH]nc(C)c2c(-c2cc3nc(OC[C@@]45CCCN4C[C@H](F)C5)nc4c3c(n2)OC[C@H](C)N4C(C)c2cccnc2N)c1C(F)(F)F (some centres unmarked) [Compound 385]"
  targetOrTestSystem: "pERK1/2 (Thr202/Tyr204), NCI-1H358 (KRAS G12C) (Homo sapiens, UniProt P01116, G12C)"
  cat: "Condition met"
- molecule: "Cc1cc2[nH]ncc2c(-c2nc3c4c(nc(OC[C@@H]5CCN5CC(F)F)nc4c2F)N(C(C)c2cccnc2N)CCO3)c1C (some centres unmarked) [Compound 14]"
  targetOrTestSystem: "pERK1/2 (Thr202/Tyr204), NCI-1H358 (KRAS G12C) (Homo sapiens, UniProt P01116, G12C)"
  cat: "Condition not met"
- molecule: "[2H]C1([2H])CN(C([2H])(C)c2cccnc2N)c2nc(OC[C@@]34CCCN3C[C@H](F)C4)nc3c(F)c(-c4cc(N)cc(C)c4C(F)(F)F)nc(c23)O1 (some centres unmarked) [Compound 141]"
  targetOrTestSystem: "pERK1/2 (Thr202/Tyr204), NCI-1H358 (KRAS G12C) (Homo sapiens, UniProt P01116, G12C)"
  cat: "Condition met"
- molecule: "CC(c1cccnc1N)N1c2nc(OC[C@@]34CCCN3C[C@H](F)C4)nc3c(F)c(-c4c(C(F)(F)F)ccc5ncccc45)nc(c23)OC[C@@H]1C (some centres unmarked) [Compound 337]"
  targetOrTestSystem: "pERK1/2 (Thr202/Tyr204), NCI-1H358 (KRAS G12C) (Homo sapiens, UniProt P01116, G12C)"
  cat: "Condition not met"
- molecule: "Cc1c(F)c(N)cc(-c2nc3c4c(nc(OC[C@@]56CCCN5C[C@H](F)C6)nc4c2F)N([C@H](C)c2cccnc2N)CCO3)c1C(F)(F)F (single isomer, unassigned) [Compound 137]"
  targetOrTestSystem: "pERK1/2 (Thr202/Tyr204), NCI-1H358 (KRAS G12C) (Homo sapiens, UniProt P01116, G12C)"
  cat: "Condition met"
- molecule: "CC(c1cccnc1N)N1CCOc2nc(-c3cc(O)cc(F)c3C3CC3)c(F)c3nc(OC[C@@H]4CC(F)(F)CN4C)nc1c23 (some centres unmarked) [Compound 45]"
  targetOrTestSystem: "pERK1/2 (Thr202/Tyr204), NCI-1H358 (KRAS G12C) (Homo sapiens, UniProt P01116, G12C)"
  cat: "Condition not met"
- molecule: "[2H]C1([2H])CN(C(C)c2cccnc2N)c2nc(OC[C@@]34CCCN3C[C@H](F)C4)nc3c(F)c(-c4cc(N)cc(C)c4C(F)(F)F)nc(c23)O1 (some centres unmarked) [Compound 140]"
  targetOrTestSystem: "pERK1/2 (Thr202/Tyr204), NCI-1H358 (KRAS G12C) (Homo sapiens, UniProt P01116, G12C)"
  cat: "Condition met"
- molecule: "CC(c1cccnc1N)N1CCOc2nc(-c3cc(O)cc4ccc(F)c(F)c34)c(F)c3nc(O)nc1c23 (centres unmarked) [Compound 9]"
  targetOrTestSystem: "pERK1/2 (Thr202/Tyr204), NCI-1H358 (KRAS G12C) (Homo sapiens, UniProt P01116, G12C)"
  cat: "Condition not met"
